Molecular target: T1, IL-18 receptor (IL-18Rα/IL-18Rβ) overexpressed on HEK-Blue IL-18 cells (Homo sapiens (Human), UniProt Q13478 19-541; O95256 20-599)
T1 sequence 1: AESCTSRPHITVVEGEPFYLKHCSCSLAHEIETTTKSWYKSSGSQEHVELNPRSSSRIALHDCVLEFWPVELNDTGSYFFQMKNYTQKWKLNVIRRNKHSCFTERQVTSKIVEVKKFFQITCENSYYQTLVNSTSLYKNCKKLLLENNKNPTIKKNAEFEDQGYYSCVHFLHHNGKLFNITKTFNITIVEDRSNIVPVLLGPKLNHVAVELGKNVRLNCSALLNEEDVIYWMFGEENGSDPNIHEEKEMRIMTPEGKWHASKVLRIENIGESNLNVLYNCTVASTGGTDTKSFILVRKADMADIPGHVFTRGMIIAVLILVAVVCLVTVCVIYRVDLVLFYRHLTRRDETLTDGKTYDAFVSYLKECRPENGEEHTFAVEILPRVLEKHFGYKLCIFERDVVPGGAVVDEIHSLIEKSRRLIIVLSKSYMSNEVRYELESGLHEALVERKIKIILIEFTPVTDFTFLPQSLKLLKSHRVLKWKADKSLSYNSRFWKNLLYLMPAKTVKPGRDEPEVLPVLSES
T1 sequence 2: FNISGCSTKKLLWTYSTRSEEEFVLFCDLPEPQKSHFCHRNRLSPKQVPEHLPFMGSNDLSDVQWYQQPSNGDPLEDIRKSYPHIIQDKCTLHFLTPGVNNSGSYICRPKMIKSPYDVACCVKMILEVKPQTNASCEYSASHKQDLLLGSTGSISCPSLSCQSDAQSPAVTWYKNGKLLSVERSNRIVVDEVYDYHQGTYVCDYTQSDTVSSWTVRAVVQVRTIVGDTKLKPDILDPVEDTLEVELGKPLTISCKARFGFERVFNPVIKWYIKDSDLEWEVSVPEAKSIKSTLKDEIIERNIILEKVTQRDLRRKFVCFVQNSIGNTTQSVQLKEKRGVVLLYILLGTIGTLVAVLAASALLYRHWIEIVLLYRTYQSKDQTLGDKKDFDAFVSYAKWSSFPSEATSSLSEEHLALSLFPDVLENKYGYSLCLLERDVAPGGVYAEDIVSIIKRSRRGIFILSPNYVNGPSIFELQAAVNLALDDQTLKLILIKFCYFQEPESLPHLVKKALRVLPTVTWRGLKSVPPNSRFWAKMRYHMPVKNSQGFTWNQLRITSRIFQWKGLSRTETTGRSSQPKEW
Assay: cell-based or functional assay
readout kind: HEK-Blue IL-18: EC50 (pM)
Only the number, expressed in pM, is required.

binder="DGL076 (bispecific antibody, V domains shown) V domain 1: QVQLQESGGGLVQPGGSLRLSCAASGNIFRATGMGWYRQAPGKWRELVARISSTGSPNYVDFVKGRFTISRDNAKNTLYLQMNSLKPDDTAVYYCNTVGTTLFAWGQGTQVTVSS V domain 2: EVQLVESGGGVAQAGGSLRLSCAASITSFSLNTMGYYRQLPGKQRELVAVESSSGITNYADSVKGRFTISRDGAKNTVFLQMNSLTPEDTAVYYCGGKLFGRDFWGQGTQVTVSS" readout_kind="HEK-Blue IL-18: EC50" endpoint_value=6.6

Recorded HEK-Blue IL-18: EC50 (binder DGL091 (bispecific antibody, V domains shown) V domain 1: QVQLVESGGGLVQAGGSLRLSCAASGRTFSKHAMGWFRQAPGKEREFVAAIDWSGGSTYYADSVKGRFTISRDNAKNTVYLQMDSLKPEDTAVYYCAADSYTDYAQLWLPELESEYDYWGQGTQVTVSS V domain 2: QVQLVESGGGLVQAGDSLRLSCVASERTFSSYTMGWFRQAPGKEREFTAALSWWNGGISTAYADSVKGRFTISRDNAKNTVYLQMNSLKTEDTALYYCAAARDRMPRADEYDYWGQGTQVTVSS ): 32

Recorded HEK-Blue IL-18: EC50 (binder DGL061 (bispecific antibody, V domains shown) V domain 1: QVQLQESGGGLVQPGGSLRLSCAASGNIFRATGMGWYRQAPGKWRELVARISSTGSPNYVDFVKGRFTISRDNAKNTLYLQMNSLKPDDTAVYYCNTVGTTLFAWGQGTQVTVSS V domain 2: QVQLQESGGGLVQPGGSLGLSCAASGIKISVNSMAWYRQAPGERREMVAVISSGGSAVYADSVKGRFTISRDNAKNMVYLQMNSLKPEDTAVYYCHPGSAAYRDYWGQGTQVTVSS ): 6.3
